Value source: paper PMC9080521

- TESTED_TARGET: MBP-PDI-b′xa′ E359A (Homo sapiens, UniProt P07237, E359A)
- Construct: MBP-PDI-b′xa′(235–479); His-tag
- Sequence (P07237 235-479 E359A): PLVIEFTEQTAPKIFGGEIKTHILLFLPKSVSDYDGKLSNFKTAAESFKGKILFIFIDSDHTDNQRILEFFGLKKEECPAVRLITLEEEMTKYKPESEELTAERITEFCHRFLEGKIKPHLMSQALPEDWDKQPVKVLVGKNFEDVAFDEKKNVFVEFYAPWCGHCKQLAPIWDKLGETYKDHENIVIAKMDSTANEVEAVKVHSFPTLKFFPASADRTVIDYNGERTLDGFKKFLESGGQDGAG
- ASSAY: Isothermal titration calorimetry (ITC)
- TEST_PARAMETERS: 25 °C
OBSERVABLE: pKd
The scale used: pKd is minus the common logarithm of the concentration in molar units.

Req: // query pKd value for entry `C[C@@H]1O[C@@H](OC[C@H]2O[C@@H](Oc3c(-c4ccc(O)c(O)c4)oc4cc(O)cc(O)c4c3=O)[C@H](O)[C@@H](O)[C@@H]2O)[C@H](O)[C@H](O)[C@H]1O`
Resp: 5.39

* * *

- TESTED_TARGET: murine proteins (mPDI) (Mus musculus)
- Sequence (P09103 236-369): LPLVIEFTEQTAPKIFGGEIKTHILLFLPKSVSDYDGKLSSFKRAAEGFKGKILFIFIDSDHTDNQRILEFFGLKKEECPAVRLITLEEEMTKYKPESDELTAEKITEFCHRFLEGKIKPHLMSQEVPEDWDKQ
OBSERVABLE: IC50

Req: // query IC50 value for entry `C[C@@H]1O[C@@H](OC[C@H]2O[C@@H](Oc3c(-c4ccc(O)c(O)c4)oc4cc(O)cc(O)c4c3=O)[C@H](O)[C@@H](O)[C@@H]2O)[C@H](O)[C@H](O)[C@H]1O`
Resp: ~30 µM

* * *

- TESTED_TARGET: UniProt P09103
OBSERVABLE: pIC50
The scale used: pIC50 is minus the common logarithm of the concentration in molar units.

Req: # query: pIC50 | item `C[C@@H]1O[C@@H](OC[C@H]2O[C@@H](Oc3c(-c4ccc(O)c(O)c4)oc4cc(O)cc(O)c4c3=O)[C@H](O)[C@@H](O)[C@@H]2O)[C@H](O)[C@H](O)[C@H]1O` | system: UniProt P09103
Resp: 4.80

* * *

- TESTED_TARGET: full-length human PDI (Homo sapiens, UniProt P07237)
- Sequence (P07237 18-508): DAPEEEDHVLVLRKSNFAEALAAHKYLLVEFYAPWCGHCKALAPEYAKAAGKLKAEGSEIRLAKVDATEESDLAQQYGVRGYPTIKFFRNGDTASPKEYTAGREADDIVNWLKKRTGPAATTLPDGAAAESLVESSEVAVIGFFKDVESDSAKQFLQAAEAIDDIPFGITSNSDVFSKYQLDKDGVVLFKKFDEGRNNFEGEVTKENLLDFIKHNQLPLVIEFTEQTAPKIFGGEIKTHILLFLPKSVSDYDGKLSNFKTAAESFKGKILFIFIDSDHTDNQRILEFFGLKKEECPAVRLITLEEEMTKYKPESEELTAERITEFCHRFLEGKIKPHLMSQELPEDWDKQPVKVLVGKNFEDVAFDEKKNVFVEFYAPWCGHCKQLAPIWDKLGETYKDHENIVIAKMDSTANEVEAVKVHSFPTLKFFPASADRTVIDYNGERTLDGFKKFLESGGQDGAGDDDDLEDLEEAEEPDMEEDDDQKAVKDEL
OBSERVABLE: IC50 (µM)
Give the value, in units of µM, as a plain number.

Req: // query IC50 value for entry C[C@@H]1O[C@@H](OC[C@H]2O[C@@H](Oc3c(-c4ccc(O)c(O)c4)oc4cc(O)cc(O)c4c3=O)[C@H](O)[C@@H](O)[C@@H]2O)[C@H](O)[C@H](O)[C@H]1O [rutin]
Resp: 31.1

* * *

- TESTED_TARGET: MBP-PDI-b′xa′ K328E (Homo sapiens, UniProt P07237, K328E)
- Construct: MBP-PDI-b′xa′(235–479); His-tag
- Sequence (P07237 235-479 K328E): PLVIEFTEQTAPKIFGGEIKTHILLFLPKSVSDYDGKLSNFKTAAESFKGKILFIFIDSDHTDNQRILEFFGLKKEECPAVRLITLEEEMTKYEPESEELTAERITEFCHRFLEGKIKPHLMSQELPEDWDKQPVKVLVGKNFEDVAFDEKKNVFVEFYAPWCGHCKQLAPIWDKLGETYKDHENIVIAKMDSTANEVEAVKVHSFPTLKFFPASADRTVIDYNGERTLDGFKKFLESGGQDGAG
- ASSAY: Isothermal titration calorimetry (ITC)
- TEST_PARAMETERS: 25 °C
OBSERVABLE: Kd (nM)
Give the value, in units of nM, as a plain number.

Req: // query Kd value for entry C[C@@H]1O[C@@H](OC[C@H]2O[C@@H](Oc3c(-c4ccc(O)c(O)c4)oc4cc(O)cc(O)c4c3=O)[C@H](O)[C@@H](O)[C@@H]2O)[C@H](O)[C@H](O)[C@H]1O [rutin]
Resp: 2290

* * *

- TESTED_TARGET: UniProt:P09103
OBSERVABLE: pIC50
The scale used: pIC50 is minus the common logarithm of the concentration in molar units.

Req: # query: pIC50 | item C[C@@H]1O[C@@H](OC[C@H]2O[C@@H](Oc3c(-c4ccc(O)c(O)c4)oc4cc(O)cc(O)c4c3=O)[C@H](O)[C@@H](O)[C@@H]2O)[C@H](O)[C@H](O)[C@H]1O [rutin] | system: UniProt:P09103
Resp: 4.58
